# system.name: Bcl-2-related protein A1 (Homo sapiens)
# protocol.summary: Bfl1 and BclB peptide interaction inhibitors, dose response, biochemical, powder compounds, wildtype and mutant Bfl1, panel (AID 504598)
# test.context: Bfl1/BclB peptide binding displacement assay, Bfl1 mutant
Activity calls are given as the source filed them. No rule for the calls is given here.
readout: percent span

Here are 5 molecules together with their reported answers.
Cc1ccc(C)n1-c1ccc(Br)cc1C(=O)O    inactive
O=C(Nc1ccc2nc(-c3ccco3)c(-c3ccco3)nc2c1)N1CCCCCC1    inactive
Cc1cc(C)nc(/N=C(/N)Nc2cccc(N)c2)n1    inactive
CCN1C(=O)/C(=C\C=C2/C=CC=CN2CC)SC1=S    inactive
Cc1ccc(C=NNC(=O)CSc2nnc(-c3ccc(Cl)cc3)n2-c2ccccc2)o1    inactive

Lab note: next molecule to report on.
Ask | Give the reported value of percent span for this record: Cc1cc(N)ccc1N1CCCC1
Reply | inactive
